This collection of values is drawn from patent US20230212549A1.

Biological target: T1, fibroblast activation protein (FAP) on FAP-expressing human WI-38 fibroblasts (human, UniProt Q12884 1-760)
T1 construct: also called human FAP
Assay: competitive FACS, WI-38 cells, vs Cy5 tracer m3; A = pIC50 >8.0
Numbered stars: 1 amine (or outer) side, 2 acyl side, 3 side chain; on linkers, the order of the positions; unused ones are H or OH. Bridge positions count the residues as written; N and C are the ends. Square brackets hold non-standard residues; d marks the D form. * marks the point of attachment. mXylylene = c1cc(C[*:1])cc(C[*:2])c1; Hexanoyl = CCCCCC(=O)*
Attribute Measured: pIC50 Category (FACS)

Sample records with pIC50 Category (FACS):
Binder | pIC50 Category (FACS)
Ac-MCPPTEFCDHXRD-NH2 (linker 2-8 via mXylylene; not fully specified (residue 11); printed as Ac-Met-[Cys(3MeBn)-Pro-Pro-Thr-Glu-Phe-Cys]-Asp-His-Mpa-Arg-Asp-NH2, also called 3BP-3192) [Ac-Met-[Cys(3MeBn)-Pro-Pro-Thr-Glu-Phe-Cys]-Asp-His-Mpa-Arg-Asp-NH2] | > 8 pIC50
Ac-M[dC]PPTEFCDHFRD-NH2 (linker 2-8 via mXylylene; SMILES CSCC[C@H](NC(C)=O)C(=O)N[C@@H]1CSCc2cccc(c2)CSC[C@@H](C(=O)N[C@@H](CC(=O)O)C(=O)N[C@@H](Cc2c[nH]cn2)C(=O)N[C@@H](Cc2ccccc2)C(=O)N[C@@H](CCCNC(=N)N)C(=O)N[C@@H](CC(=O)O)C(N)=O)NC(=O)[C@H](Cc2ccccc2)NC(=O)[C@H](CCC(=O)O)NC(=O)[C@H]([C@@H](C)O)NC(=O)[C@@H]2CCCN2C(=O)[C@@H]2CCCN2C1=O, also called 3BP-3175) [Ac-Met-[cys(3MeBn)-Pro-Pro-Thr-Glu-Phe-Cys]-Asp-His-Phe-Arg-Asp-NH2] | > 8 pIC50

pIC50 Category (FACS) reported for this binder Hexanoyl-CPPTQFCD-NH2 (linker 1-7 via tMeBn(EuDOTA-PP); also: europium complex of DOTA, also called 3BP-3661) [Hex-[Cys(tMeBn(EuDOTA-PP))-Pro-Pro-Thr-Gln-Phe-Cys]-Asp-NH2] : > 8 pIC50
